Experiment: CCTE_Shafer_MEA_dev_per_network_spike_spike_number_mean: CCTE's Neural Network Formation Assay for Mean Number of Spikes in a Network Spike, Shafer Lab (AID 2284053);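 on AC50: fitted as decrease in spikes per network spike relative to DMSO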
Calls of active or inactive are those of the source. How the source made its calls: active means hit-call score of the fitted dose curve at least 0.9, where 1 is the maximum; inactive means score below 0.9.
test-readout: AC50

Some molecules with known AC50 results, for comparison:
| record-smiles | result |
| --- | --- |
| CC[C@H]1OC(=O)[C@H](C)[C@@H](O[C@H]2C[C@@](C)(OC)[C@@H](O)[C@H](C)O2)[C@H](C)[C@@H](O[C@@H]2O[C@H](C)C[C@H](N(C)C)[C@H]2O)[C@](C)(O)C[C@@H](C)C(=O)[C@H](C)[C@@H](O)[C@]1(C)O | inactive |
| O=P(OC(CCl)CCl)(OC(CCl)CCl)OC(CCl)CCl | inactive |
| NC(=O)NO | inactive |
| CC[C@H](C)C(=O)O[C@H]1C[C@@H](C)C=C2C=C[C@H](C)[C@H](CC[C@@H]3C[C@@H](O)CC(=O)O3)[C@H]21 | 2220 nM (active) |
| CCC(C)(C)C(=O)O[C@H]1C[C@@H](C)C=C2C=C[C@H](C)[C@H](CC[C@@H]3C[C@@H](O)CC(=O)O3)[C@H]21 | 1100 nM (active) |
| Cn1c(=O)c2c(ncn2C)n(C)c1=O | inactive |

As a next step, examine the molecule that follows.
[Q] Read off the recorded AC50 for CNCc1ccc(NC(=O)c2c[nH]c3c2C(=O)CCC3)cc1
[A] 2490 nM (active)

---

Assay: CCTE_Shafer_MEA_acute_burst_number: CCTE's Neural Acute Assay for Single-Electrode Bursts, Shafer Lab (AID 2284013)
The source made the active and inactive calls. The calls were made as follows: active = hit-call score of the fitted dose curve at least 0.9, where 1 is the maximum; inactive = score below 0.9.
Field 'call' accepts 1 (yes) for active, 0 (no) for inactive

[Q] How was On1ccccc1=S classified in this test?
[A] 0 (no)

[Q] How was COc1cccc(-c2ccc(/C=C\CN3CCCCCC3)cc2Cl)c1 classified in this test?
[A] 0 (no)

[Q] How was O=C(O)CCN(C1(C(=O)NO)CCCC1)S(=O)(=O)c1ccc(Oc2ccc(F)cc2)cc1 classified in this test?
[A] 0 (no)

---

Read-out: Interferon-gamma inducible Protein 10 (IP10), CXCL10 (gene 3627)
Experiment: BSK_hDFCGF_IP10: BioMAP Diversity Plus: hDFCGF Assay for Interferon-gamma inducible Protein 10 (IP10) Biomarker Activity (AID 2283053)
Settings: primary human foreskin fibroblasts; actives raise or lower the signal
Calls of active or inactive are those of the source. The calls were made as follows: active = hit-call score of the fitted dose curve at least 0.9, where 1 is the maximum; inactive = score below 0.9.
Field 'call' accepts 1 (active), -1 (inactive)

| compound | class-name |
| --- | --- |
| O=C(O)CCN(C1(C(=O)NO)CCCC1)S(=O)(=O)c1ccc(Oc2ccc(F)cc2)cc1 | -1 |
| CCCN(C1CCN(C(=O)C2CCNCC2)CC1)[C@@H]1CCc2ccc(OC)cc2C1 | -1 |
| Cn1c(=O)cc(Oc2ccc(F)cc2F)c2cnc(NCC(C)(C)O)nc21 | 1 |
| Cc1c(-c2cccnc2)c2ccccc2n1CCCCC(=O)O | -1 |
| On1ccccc1=S | 1 |
| C1N2CN3CN1CN(C2)C3 | -1 |

Then this compound:
[Q] How was CCOc1cccc(-n2cc(C(=O)N3CCN(c4cc(C(=O)O)c5ccccc5c4)CC3)nc2-c2ccc(C)cc2)c1 classified in this test?
[A] 1
